Measured values drawn from ChEMBL document CHEMBL1153592 for this set.

Test system: SW-620
test-summary: Cytotoxicity against human SW620 cells after 72 hrs by MTT assay
Assay type: functional, cell-based
condition-details: SW-620, 72 h
pIC50: −log10 of the molar value.
endpoint: pIC50

Observe how each entry below is paired with its result.
[[record]]
compound = "C#CCn1cc(C(=O)NC(C(=O)NC2CCCCC2)c2ccccc2)c(=O)c2cc(F)c(Cl)nc21 (stereo not drawn)"
experimental_result = "< 5.00"

[[record]]
compound = "C#CCn1cc(C(=O)NC(CC(=O)NC2CCCCC2)c2ccccc2)c(=O)c2cc(F)c(Cl)nc21 (stereo not drawn)"
experimental_result = "< 5.00"


Let us move to another entry and its pIC50.
Prompt line: Need pIC50 of C#CCn1cc(C(=O)NC(C(=O)NC2CCCC2)c2ccccc2)c(=O)c2cccnc21 (stereo not drawn) , thanks.
Response line: < 5.00

* * *

Tested on: KB
test-summary: Cytotoxicity against human KB cells after 72 hrs by MTT assay
Type: functional, cell-based
pIC50: −log10 of the molar value.
In this section, each of the compounds is paired with its reported pIC50.

[[record]]
compound = "C#CCn1cc(C(=O)NC(CC(=O)NC2CCCCC2)c2ccccc2)c(=O)c2cc(F)c(Cl)nc21 (stereo not drawn)"
experimental_result = "< 5.00"

[[record]]
compound = "C#CCn1cc(C(=O)NC(CC(=O)Nc2ccccc2)c2ccccc2)c(=O)c2ccc(Cl)nc21 (stereo not drawn)"
experimental_result = "< 5.00"


Could you now consider this next compound?
Prompt line: I'd like to know its pIC50. The compound in question is C#CCn1cc(C(=O)NC(CC(=O)Nc2ccccc2)c2ccccc2)c(=O)c2cc(F)c(Cl)nc21 (stereo not drawn)
Response line: < 5.00
